- Target or test system: ACA-6501 aPL antibody
- Experimental protocol: competitive ELISA I50; antibody not given, ACA-6501 serum on CL/β2-GPI assumed (Ex. 4B)
Bridge positions count the residues as written; N and C are the ends. Ends that are not written are not given here.
Assign IC50 to each entry below.
One number for each entry, in µg/mL.

# annotated cases, reported IC50 shown
> print(dat)
                                binder  data.value
1    CLGVLGKLCPG [3G3 truncation 4: …]         460
2  GPCLGVLGKLCPG [3G3 truncation 2: …]         180

For CLGVLGKLC (disulfide 1-9 (inferred)) [LJP 690 …] the binder record lists IC50 as 10
